- TARGET SYSTEM: human GPR43 receptor (hGPR43) (Homo sapiens)
- Construct: expressed in transfected cells
- Sequence (O15552 whole entry): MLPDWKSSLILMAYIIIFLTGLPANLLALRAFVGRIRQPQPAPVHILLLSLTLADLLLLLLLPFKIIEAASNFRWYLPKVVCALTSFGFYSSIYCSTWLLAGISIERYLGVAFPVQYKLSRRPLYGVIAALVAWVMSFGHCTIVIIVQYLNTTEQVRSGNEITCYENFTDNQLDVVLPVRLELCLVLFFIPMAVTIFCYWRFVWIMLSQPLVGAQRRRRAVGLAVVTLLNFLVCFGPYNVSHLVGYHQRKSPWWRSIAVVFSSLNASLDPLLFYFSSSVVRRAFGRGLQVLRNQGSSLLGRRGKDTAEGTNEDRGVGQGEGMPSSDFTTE
- ASSAY COMMENT: GTPγS binding assay (SPA method)
- Type: biochemical
- EXPERIMENTAL CONDITIONS: membranes expressing hGPR43; assay performed in the presence of SCFA; read-out: EC50 (nM) in GTPγ35S assay
Readings of EC50 for the listed molecules

MOLECULE: C[C@@H](O)CN(C(=O)[C@@H](CC(=O)O)Cc1ccccc1)c1nc(-c2ccccc2Cl)cs1
EC50 / nM: 628

MOLECULE: Cc1nc(CC(CC(=O)O)C(=O)N(C)c2nc(-c3ccccc3Cl)cs2)cs1 (stereo not drawn)
EC50 / nM: 2470

MOLECULE: CN(C(=O)[C@@H](CC(=O)O)CC1CCCO1)c1nc(-c2ccccc2Cl)cs1 (stereo partly drawn)
EC50 / nM: 832

MOLECULE: COC(=O)CN(C(=O)[C@@H](CC(=O)O)Cc1ccccc1)c1nc(-c2ccccc2Cl)cs1
EC50 / nM: 327

MOLECULE: O=C(O)C[C@@H](Cc1ccc(F)cc1)C(=O)Nc1nc(-c2ccccc2Cl)cs1
EC50 / nM: 643

MOLECULE: O=C(O)C[C@@H](Cc1ccccc1)C(=O)Nc1nc(-c2cc(Cl)sc2Cl)cs1
EC50 / nM: 538

MOLECULE: CN(C)c1ccc(-c2ccccc2-c2csc(N(C)C(=O)[C@@H](CC(=O)O)Cc3ccccc3)n2)cn1
EC50 / nM: 72

MOLECULE: O=C(O)C[C@@H](Cc1ccccc1)C(=O)Nc1nc(-c2ccccc2Cl)cs1
EC50 / nM: 273

MOLECULE: O=C(O)C[C@@H](Cc1ccccc1)C(=O)Nc1nc(-c2ccccc2)ns1
EC50 / nM: 680

MOLECULE: O=C(O)C[C@@H](CC1CCCC1)C(=O)N(c1nc(-c2cc(Cl)ccc2Cl)cs1)C1CC1
EC50 / nM: 13

MOLECULE: CN1CCOc2cc(-c3ccccc3-c3csc(N(C(=O)[C@@H](CC(=O)O)CC4CCCC4)C4CC4)n3)cnc21
EC50 / nM: 30

MOLECULE: CN(C(=O)[C@@H](CC(=O)O)CC1CCOCC1)c1nc(-c2cc(Cl)ccc2Cl)cs1
EC50 / nM: 43

MOLECULE: O=C(O)C[C@@H](Cc1ccccc1)C(=O)Nc1nc(-c2cc(Cl)ccc2Cl)cs1
EC50 / nM: 134

MOLECULE: O=C(O)C1CC=CCC1C(=O)Nc1nc(-c2ccccc2Cl)cs1 (stereo not drawn)
EC50 / nM: 109

MOLECULE: CN(C(=O)[C@@H](CC(=O)O)Cc1ccccc1)c1nc(-c2ccccc2Cl)ns1
EC50 / nM: 98

MOLECULE: COCCN(C(=O)[C@@H](CC(=O)O)Cc1ccccc1)c1nc(-c2ccccc2Cl)cs1
EC50 / nM: 1380

MOLECULE: CN(C(=O)[C@@H](CC(=O)O)Cc1ccccc1)c1nc(-c2ccccc2-c2ccc(N3CCCC3=O)nc2)cs1
EC50 / nM: 353

MOLECULE: CCN(C(=O)[C@@H](CC(=O)O)Cc1ccccc1)c1nc(-c2ccccc2Cl)cs1
EC50 / nM: 249

MOLECULE: CN(C(=O)[C@H]1CC=CC[C@H]1C(=O)O)c1nc(-c2ccccc2Cl)cs1 (relative stereo)
EC50 / nM: 142

MOLECULE: COc1ncc(-c2ccccc2-c2csc(N(C(=O)[C@@H](CC(=O)O)CC3CCCC3)C3CC3)n2)cc1F
EC50 / nM: 27

MOLECULE: C[C@@H](c1ccccc1)[C@H](CC(=O)O)C(=O)N(C)c1nc(-c2ccccc2Cl)cs1
EC50 / nM: 216

MOLECULE: O=C(O)C[C@@H](Cc1ccccc1)C(=O)Nc1nc(-c2ccccc2Cl)c(F)s1
EC50 / nM: 96

MOLECULE: CN(C(=O)[C@@H](CC(=O)O)Cc1ccccc1)c1nc(-c2ccccc2Cl)c(F)s1
EC50 / nM: 95

MOLECULE: Cc1ccc(CC(CC(=O)O)C(=O)N(C)c2nc(-c3ccccc3Cl)cs2)cc1 (stereo not drawn)
EC50 / nM: 452

MOLECULE: CN(C(=O)[C@@H](CC(=O)O)CC1CCCCC1)c1nc(-c2ccccc2Cl)cs1
EC50 / nM: 37

MOLECULE: CC(C)C[C@H](CC(=O)O)C(=O)Nc1nc(-c2ccccc2Cl)cs1
EC50 / nM: 322

MOLECULE: O=C(O)/C=C\C(=O)Nc1nc(-c2ccccc2Cl)cs1
EC50 / nM: 405

MOLECULE: CN(C(=O)[C@@H](CC(=O)O)Cc1ccccc1)c1nc(-c2ccccc2-c2ccc(N3CCOCC3)cc2)cs1 [Compound 132, 2,2,2-trifluoroacetate]
EC50 / nM: 276

MOLECULE: CN(C(=O)[C@@H](CC(=O)O)CC1CCCC1)c1nc(-c2ccccc2-c2ccc(N3CCOCC3)nc2)cs1
EC50 / nM: 50

MOLECULE: CN(C(=O)[C@@H](CC(=O)O)Cc1ccccc1)c1nc(-c2ccccc2-c2ccc(F)nc2)cs1
EC50 / nM: 421

MOLECULE: O=C(O)C[C@@H](CC1CCCC1)C(=O)N(CCO)c1nc(-c2cc(Cl)ccc2Cl)cs1
EC50 / nM: 355

MOLECULE: CN1CCOc2cc(-c3ccccc3-c3csc(N(C)C(=O)[C@@H](CC(=O)O)Cc4ccccc4)n3)cnc21
EC50 / nM: 92

MOLECULE: Cc1cc(-c2csc(NC(=O)[C@@H](CC(=O)O)Cc3ccccc3)n2)c(C)s1
EC50 / nM: 442
